The measurements presented in this section are drawn from ChEMBL document CHEMBL3430912.

# Test system: Trypanosoma cruzi
# assay_comment: GSK_TCAKS: pIC50 Trypanosoma cruzi Imaging: Infected Cells. […] Cells were then washed once with PBS before infection. T. cruzi trypomastigotes, collected at days 5 to 8 after infection from LLC-MK2 parasite infected cultures, were allowed to swim out for 4h at 37C from a centrifuged pellet (2,500 rpm/10 min/room temperature). Trypomastigotes were then collected and counted in a CASY Cell Counter. Trypomastigotes, in supplemented DMEM, were added to H9c2 cultures in a multiplicity of infection of 1 and incubated for 18 h. Cells were washed once with PBS before incubation of the infected H9c2 monolayer with trypsin (Life-Technologies) to detach cells from the flask. Cells were counted in a CASY Cell Counter using a 150 um capillary and their density set at 5 * 10^4 cells per mL in supplemented assay DMEM. Infected H9c2 were dispensed into 384-well poly-lysine coated assay plates at 50uL per well using a Multidrop Combi dispenser. After seeding them, the plates were incubated at 37C, 5% CO2 for 72h. Cultures were then fixed and stained by addition of 50 uL of a solution containing 8% formaldehyde and 4 uM DRAQ5 DNA dye (BioStatus, UK) per well. […] Five images were collected per well for reliable statistical analysis. Automated image analysis was performed with a script developed on Acapella High Content Imaging and Analysis Software (PerkinElmer). Output: percentage of infected cells per well as a second infection marker.
# Assay type: functional, organism-based, Rattus norvegicus
# test_context: H9c2, 4 h
Could you please report measured IC50 for the items listed next?
Give bare numbers, in nM.

> print(dat)
                                   compound        test.target  measure.unit  measurement
1  CCC(c1ccc(F)cc1)n1cncc1-c1cnn(C)c1 (stereo not given)  Trypanosoma cruzi            nM          316

Quick request: IC50 for each listed item, please.
1. NS(=O)(=O)c1ccc(Nc2ncc3cccc(OC4CCNCC4)c3n2)cc1
2. Cc1nn(C2CCS(=O)(=O)C2)c(C)c1CN(C)C(=O)C=Cc1sc2ccccc2c1Cl (stereo not given)
3. Nc1nc(-c2ccccn2)nc(-n2nc(-c3ccccc3)cc2N)n1

Result:
50.1
501
2510

// for each compound below, give its IC50
1. Cc1ccc(S(C)(=O)=O)cc1Nc1nccc(-c2sc(N)nc2-c2ccccc2)n1
2. N#Cc1cc(N2CCCC2=O)ccc1Sc1ccccc1CO
3. CC(=Cc1ccccc1)CN1CCC(=O)N(Cc2cccnc2)CC1
4. O=C(Nc1nc(-c2ccccn2)cs1)N1C[C@H]2C[C@@]2(c2ccccc2)C1
5. COc1ccnc2[nH]cc(-c3cc(C(=O)N[C@H](CO)c4ccccc4)co3)c12

Result:
1. 126
2. 398
3. 501
4. 501
5. 20000

----------
# Test system: Leishmania donovani
# assay_comment: GSK_TCAKS: pIC50 Leishmania donovani Imaging: Infected Macrophages. Assay plates (384-well) were prepared by adding 250nL of compound to each well. For single shot assay, the final compound concentration was 5 uM. […] Automated image analysis was performed with a script developed on Acapella High Content Imaging and Analysis Software (PerkinElmer). Output: Percent of infected macrophage cells were reported for each well.
# Type: functional, organism-based, Homo sapiens
# test_context: THP-1
Kindly supply the reported IC50 values for the records listed here.
Answers are plain numbers, in µM.

# annotated cases, reported IC50 shown
> print(dat)
                                   molecule  readout  measurement
1  CC(CCc1ccccc1)NC(=O)CN(Cc1ccccn1)Cc1ccccn1 (stereo not given)     IC50         3.16
2          c1ccc2sc(Nc3nc4ncccc4[nH]3)nc2c1     IC50         2.51
3  CCOc1ccc(N(C)S(=O)(=O)c2ccc3[nH]cc(C(=O)NC4CCCC4)c(=O)c3c2)cc1     IC50         31.6

Ask: Given the entry CC(c1cc(Cl)cc(Cl)c1)N(C)c1ncc2c(N)nc(N)nc2n1 (stereo not given) , what IC50 was observed with Leishmania donovani?
Result: 0.794
